Data provenance: patent US12643889B2

# test protocol: Canine pharmacokinetic assay
# Type: in vivo, male Beagle dogs
# study conditions: male, Beagle, dog, plasma; canine; intravenous administration 1 mg/kg
# Procedure: In a mouse pharmacokinetic assay, male ICR mice (20 g to 25 g) were selected and fasted overnight. Three mice were selected and intragastrically administered with 5 mg/kg of the corresponding compound. The blood of the mice was collected before the administration and at 15 min, 30 min, 1 h, 2 h, 4 h, 8 h, 24 h after the administration. […] The primary pharmacokinetic parameters were analyzed with a WinNonlin 7.0 software, with non-compartmental model. […]
Below, each entry is listed alongside its reported AUC(0-t).
Provide the reading as a plain figure in ng·h/mL.

- compound: "C[C@H](NC(=O)c1c(C(F)F)nn(C)c1Oc1cccc(C(C)(F)F)c1)c1ccc(C(=O)O)cc1"
  unit annotation: "ng·h/mL"
  AUC(0-t): 4370

Kindly consider the entry below.
Given the entry C[C@H](NC(=O)c1c(C(F)F)nn(C)c1Oc1cccc(C(F)(F)F)c1)c1ccc(C(=O)O)cc1 [Control Compound, reference compound] , report its measured AUC(0-t).
3730

====

# test protocol: Canine pharmacokinetic assay
# Format: in vivo, male Beagle dogs
# study conditions: male, Beagle, dog, plasma; canine; intravenous administration 1 mg/kg; read-out: Vz
Below, each entry is listed alongside its reported Vd.
Provide the reading as a plain figure in L/kg.

- molecule: "C[C@H](NC(=O)c1c(C(F)F)nn(C)c1Oc1cccc(C(C)(F)F)c1)c1ccc(C(=O)O)cc1"
  unit annotation: "L/kg"
  Vd: 2.84

Kindly consider the entry below.
Given the entry C[C@H](NC(=O)c1c(C(F)F)nn(C)c1Oc1cccc(C(F)(F)F)c1)c1ccc(C(=O)O)cc1 [Control Compound, reference compound] , report its measured Vd.
3.21

====

# test protocol: Mouse pharmacokinetic assay
# Format: in vivo, male ICR mice
# study conditions: male, ICR, plasma, oral gavage administration 5 mg/kg
observed property: half-life (h)
Provide the reading as a plain figure in h.

See these solved cases before continuing.
- compound: "CCc1cccc(Oc2c(C(=O)N[C@@H](C)c3ccc(C(=O)O)cc3)c(C(F)F)nn2C)c1 [Compound I-1]"
  half-life / h: 4.33
- compound: "C[C@H](NC(=O)c1c(C(F)F)nn(C)c1Oc1csc(C(F)(F)F)c1)c1ccc(C(=O)O)cc1 [Compound I-42]"
  half-life / h: 23.2
- compound: "C[C@H](NC(=O)c1c(C(F)F)nn(C)c1Sc1cccc(C(F)(F)F)c1)c1ccc(C(=O)O)cc1 [Compound I-35]"
  half-life / h: 7.12

Kindly consider the entry below.
Given the entry C[C@H](NC(=O)c1c(C(F)F)nn(C)c1Oc1cccc(C(F)(F)F)c1)c1ccc(C(=O)O)cc1 [Control Compound, reference compound] , report its measured half-life.
30.9

====

# assay system: recombinant human EP4 receptor membrane protein (Homo sapiens)
# Sequence (P35408 whole entry): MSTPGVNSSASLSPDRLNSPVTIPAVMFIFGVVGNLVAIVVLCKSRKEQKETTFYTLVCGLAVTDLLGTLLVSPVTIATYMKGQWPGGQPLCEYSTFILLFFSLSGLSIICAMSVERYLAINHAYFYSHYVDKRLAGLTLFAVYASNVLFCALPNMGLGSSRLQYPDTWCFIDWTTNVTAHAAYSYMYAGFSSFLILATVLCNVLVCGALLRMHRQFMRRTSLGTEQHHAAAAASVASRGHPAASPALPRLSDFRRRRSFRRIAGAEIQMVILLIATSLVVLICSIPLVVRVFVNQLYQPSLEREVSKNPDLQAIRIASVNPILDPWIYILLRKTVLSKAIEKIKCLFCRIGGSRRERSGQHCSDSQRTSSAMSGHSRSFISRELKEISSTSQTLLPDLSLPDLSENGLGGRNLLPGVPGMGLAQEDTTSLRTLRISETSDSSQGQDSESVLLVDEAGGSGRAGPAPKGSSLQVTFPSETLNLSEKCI
# test protocol: Radioligand binding assay for EP4 receptor ([3H]-PGE2)
# study conditions: [3H]-PGE2 1.5 nM; membrane protein 20 μg/well
Mark 1 (yes) only for IC50 values smaller than 9 nM; exact matches and larger values are 0 (no).

- compound: "C[C@H](NC(=O)c1c(C(F)F)nn(C)c1Oc1ccc(F)c(C(C)(F)F)c1)c1ccc(C(=O)O)cc1 [Compound I-10]"
  answer label: "1 (yes)"
- compound: "CC(c1cccc(Oc2c(C(=O)N[C@@H](C)c3ccc(C(=O)O)cc3)c(C(F)F)nn2C)c1)C(F)(F)F (some centres unmarked) [Compound I-15]"
  answer label: "0 (no)"
- compound: "CCc1cc(Oc2c(C(=O)N[C@@H](C)c3ccc(C(=O)O)cc3)c(C(F)F)nn2C)ccc1F [Compound I-2]"
  answer label: "1 (yes)"
- compound: "CC(O)c1cc(Oc2c(C(=O)N[C@@H](C)c3ccc(C(=O)O)cc3)c(C(F)F)nn2C)ccc1F (some centres unmarked) [Compound I-23]"
  answer label: "0 (no)"
- compound: "C[C@H](NC(=O)c1c(C(F)F)nn(C)c1Oc1csc(C(F)(F)F)c1)c1ccc(C(=O)O)cc1 [Compound I-42]"
  answer label: "0 (no)"
- compound: "CSc1cccc(Oc2c(C(=O)N[C@@H](C)c3ccc(C(=O)O)cc3)c(C(F)F)nn2C)c1 [Compound I-30]"
  answer label: "0 (no)"

In the following, a different compound is considered.
IC50 strictly < 9 nM for this compound? C[C@H](NC(=O)c1c(C(F)F)nn(C)c1Oc1cccc(C(C)(F)F)c1)c1ccc(C(=O)O)cc1 [Compound I-5]
1 (yes)
